System: isolated Langendorff rat heart
measurement notes: isolated Langendorff rat heart (CVIH), coronary flow
measurement setup: In Vitro Langendorf Isolated Rat Heart; constant perfusion pressure 70 mm Hg, 37° C.; read-out: EC 25 (Coronary Flow)
readout label: EC25
Field: value (include unit after the number)

*Q* Supply reported EC25 belonging to this molecule: COc1ccc(/C=C/C=O)cc1OC1CCCC1
*A* 1100 nM

*Q* Supply reported EC25 belonging to this molecule: COc1ccc(CCC(=O)O)cc1OC1CCCC1
*A* 4000 nM

*Q* Supply reported EC25 belonging to this molecule: COC(=O)/C=C/c1ccc(OC)c(OC2CCCC2)c1
*A* 2000 nM

*Q* Supply reported EC25 belonging to this molecule: COC(=O)CCc1ccc(OC)c(OC2CCCC2)c1
*A* 15000 nM

*Q* Supply reported EC25 belonging to this molecule: COc1ccc(CCC(N)=O)cc1OC1CCCC1
*A* 3000 nM

*Q* Supply reported EC25 belonging to this molecule: COc1ccc(CCCO)cc1OC1CCCC1
*A* 2000 nM

These measurements were taken from patent US5274002A.
